Provide the reported protein stability index of each item.
B1: EMD (parent)
chain: YQSKGYNDDYYEESYFTTRTYGEP

Variants of: B1
experiment.description: protein stability index of a GFP-peptide fusion (GPS, HEK-293T) (PSI 1-6); higher = more stable;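 also: lentivirally expressed fusions sorted by FACS into six bins by GFP to DsRed ratio, PSI derived from sequencing read proportions per bin multiplied by bin number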
test.settings: c terminus: a fixed tail appended
One number for each entry.

Record excerpt, results attached:
sequence.variant: T18D
protein stability index: 2.46

sequence.variant: Y1I
protein stability index: 3.2

sequence.variant: Y10H
protein stability index: 2.45

Respectfully, I request protein stability index for each entry included below.
1. N7H
2. P24D
3. E23Y
4. S3Y
5. D9L
6. F16W
7. N7L
8. E13K

Output line:
1. 2.18
2. 2.89
3. 1.99
4. 2.47
5. 2.01
6. 1.45
7. 1.71
8. 1.67

Respectfully, I request protein stability index for each entry included below.
1. Y11L
2. S3P

Output line:
1: 2.38; 2: 2.72

Respectfully, I request protein stability index for each entry included below.
1. F16Q
2. S3E

Output line:
3.1
3.25

Values compiled from the supplement of paper PMC10567573.
